assay: Volume of distribution at steady state in rat at 1 mg/kg, iv; assay type: ADME, organism-based; set-up: dose 1 mg/kg, route intravenous; conditions: in vivo, read-out: Vdss
valueKind: Vd (L/kg)
Your answer is read as L/kg, so omit the unit and give the number.

What does the record list as Vd for CCc1nnc([C@@H](C)NS(=O)(=O)c2ccc(Cl)cc2)n1CC ?
0.7

* * *

assay: Cmax in rat at 3 mg/kg, po; assay type: ADME, organism-based; parameters: dose 3 mg/kg, route oral; settings: in vivo
valueKind: Cmax (nM)
Write the answer as a number in nM, unit excluded.

Fill blank: measured Cmax of the compound CCc1nnc([C@@H](C)NS(=O)(=O)c2ccc(Cl)cc2)n1CC is ____.
1600

* * *

assay: Lipophilicity, log D of the compound; format: physicochemical; settings: octanol/water
valueKind: logD

Recorded logD of CCc1nnc([C@@H](C)NS(=O)(=O)c2ccc(Cl)cc2)n1CC , please.
1.4

* * *

system: Liver microsome; assay: Intrinsic clearance in human liver microsomes; type: ADME; details: microsomes
valueKind: microsomal CLint (µL/min/mg)
Report only the number, with the unit µL/min/mg understood.

Form field: microsomal CLint recorded for CCc1nnc([C@@H](C)NS(=O)(=O)c2ccc(Cl)cc2)n1CC with Liver microsome (enter value)
5.5

* * *

target: Sphingosine 1-phosphate receptor 1 (Homo sapiens); test: Antagonist activity against S1P1R in human U2OS cells expressing beta-arrestin/green fluorescent protein assessed as effect on S1P-induced beta-arrestin GFP relocalization incubated for 30 mins by Hoechst 33342 staining based receptor translocation assay
Sequence (P21453 whole entry): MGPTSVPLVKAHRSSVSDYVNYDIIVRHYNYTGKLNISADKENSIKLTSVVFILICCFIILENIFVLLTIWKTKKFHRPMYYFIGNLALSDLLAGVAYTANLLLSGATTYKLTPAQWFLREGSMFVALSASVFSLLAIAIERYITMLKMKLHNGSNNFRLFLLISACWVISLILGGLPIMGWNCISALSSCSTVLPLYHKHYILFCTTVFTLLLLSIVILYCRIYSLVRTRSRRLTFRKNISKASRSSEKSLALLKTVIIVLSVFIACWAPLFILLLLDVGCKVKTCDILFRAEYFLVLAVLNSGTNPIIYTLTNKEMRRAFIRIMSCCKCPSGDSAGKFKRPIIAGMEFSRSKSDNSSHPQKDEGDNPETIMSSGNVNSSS
pEC50: −log10 of the molar value.
valueKind: pEC50

Worked examples follow.
Cc1nnc(C(Cc2ccccc2)NS(=O)(=O)c2ccc(Cl)cc2)n1Cc1ccccc1 (racemic)
< 4.00
Cc1ncc(C(Cc2ccccc2)NS(=O)(=O)c2ccc(Cl)cc2)n1C (racemic)
< 4.00

Now, please, on to the next compound.
Need pEC50, item CCc1nnc([C@H](C)NS(=O)(=O)c2ccc(Cl)cc2)n1CC
< 4.48
